# PDE1A selectivity (versus PDE9A2) per entry
target_desc: PDE1A (Homo sapiens, UniProt P54750)
Construct: purchased Reaction Biology Corporation, Malvern, Pa
Sequence (P54750 whole entry): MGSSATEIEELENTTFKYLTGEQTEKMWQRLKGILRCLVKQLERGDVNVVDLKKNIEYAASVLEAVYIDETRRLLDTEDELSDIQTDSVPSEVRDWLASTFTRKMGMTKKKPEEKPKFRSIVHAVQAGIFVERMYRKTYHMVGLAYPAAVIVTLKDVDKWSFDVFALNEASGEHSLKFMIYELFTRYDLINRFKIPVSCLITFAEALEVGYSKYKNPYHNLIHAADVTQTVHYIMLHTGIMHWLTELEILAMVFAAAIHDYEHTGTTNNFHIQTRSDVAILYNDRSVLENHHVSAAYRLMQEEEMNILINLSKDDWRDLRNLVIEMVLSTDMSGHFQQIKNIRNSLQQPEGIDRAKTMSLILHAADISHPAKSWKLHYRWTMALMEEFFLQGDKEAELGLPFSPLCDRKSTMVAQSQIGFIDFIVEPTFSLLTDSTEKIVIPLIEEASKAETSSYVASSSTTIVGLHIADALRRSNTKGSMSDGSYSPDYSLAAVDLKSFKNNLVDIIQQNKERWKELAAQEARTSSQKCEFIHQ
assay_explanation: Phosphodiesterase enzyme screening assay, PDE1A
Assay type: biochemical
condition_summary: ratio of IC50 values PDE1A vs PDE9A2; value greater than 1 indicates greater selectivity for PDE9A2
Lab note: write the figure by itself, no unit.

Solved entries:
compound	PDE1A selectivity (versus PDE9A2)
Cc1cc(F)ccc1-c1ncc2c(=O)[nH]c(C3CN(Cc4nc5ccccn5n4)CC3C)nn12 (single isomer, unassigned; (+))	215
Cc1cc(F)ccc1-c1ncc2c(=O)[nH]c(C3CN(Cc4cnccn4)CC3C)nn12 (single isomer, unassigned; (+))	342
Cc1cc(F)ccc1-c1ncc2c(=O)[nH]c(C3CN(Cc4ccc(Cl)cc4)CC3C)nn12 (single isomer, unassigned; (+))	468
CC1CN(Cc2cnccn2)CC1c1nn2c(C3CCC(F)(F)CC3)ncc2c(=O)[nH]1 (single isomer, unassigned; (+))	233
CC1CN(Cc2nc3ccccc3[nH]2)CC1c1nn2c(C3CCC(F)(F)CC3)ncc2c(=O)[nH]1 (single isomer, unassigned; (+))	90

Proceed to the following item.
Exercise: State its PDE1A selectivity (versus PDE9A2) for this compound: Cc1ccc(F)cc1-c1ncc2c(=O)[nH]c(C3CN(Cc4ccccn4)CC3C)nn12 (single isomer, unassigned; (+))
Solution: 560

----------
target_desc: PDE1A (Homo sapiens)
Construct: purchased Reaction Biology Corporation, Malvern, Pa
assay_explanation: Phosphodiesterase enzyme screening assay, PDE1A
Type: biochemical
condition_summary: ratio of IC50 values PDE1A / PDE9A2; value greater than 1 indicates greater selectivity for PDE9A2
# PDE1A selectivity (versus PDE9A2) per entry
Lab note: write the figure by itself, no unit.

Solved entries:
compound	PDE1A selectivity (versus PDE9A2)
CC1CN(Cc2ccccc2)CC1c1nn2c(-c3ccccc3F)ncc2c(=O)[nH]1 (single isomer, unassigned; (+))	76
CCC(CC)c1ncc2c(=O)[nH]c(C3CN(Cc4cn5ccccc5n4)CC3C)nn12 (single isomer, unassigned; (+))	51
Cc1cnccc1-c1ncc2c(=O)[nH]c(C3CN(Cc4ncccn4)CC3C)nn12 (single isomer, unassigned; (+))	85
Cc1cnccc1-c1ncc2c(=O)[nH]c(C3CN(Cc4cn5ccccc5n4)CC3C)nn12 (single isomer, unassigned; (+))	155
CC1CN(Cc2ccc(F)cc2)CC1c1nn2c(-c3ccccc3F)ncc2c(=O)[nH]1 (single isomer, unassigned; (+))	62

Exercise: Fill: PDE1A selectivity (versus PDE9A2) (PDE1A (Homo sapiens)) for this compound CC1CN(Cc2ncccn2)CC1c1nn2c(-c3ccccc3F)ncc2c(=O)[nH]1 (single isomer, unassigned; (+))
Solution: 19

Exercise: Fill: PDE1A selectivity (versus PDE9A2) (PDE1A (Homo sapiens)) for this compound Cc1cnccc1-c1ncc2c(=O)[nH]c(C3CN(Cc4ccccc4)CC3C)nn12 (single isomer, unassigned; (+))
Solution: 167

Exercise: Fill: PDE1A selectivity (versus PDE9A2) (PDE1A (Homo sapiens)) for this compound CCC(CC)c1ncc2c(=O)[nH]c(C3CN(Cc4nc5ccccn5n4)CC3C)nn12 (single isomer, unassigned; (+))
Solution: 386

----------
target_desc: PDE1B (Homo sapiens, UniProt Q01064)
Construct: purchased Reaction Biology Corporation, Malvern, Pa
Sequence (Q01064 whole entry): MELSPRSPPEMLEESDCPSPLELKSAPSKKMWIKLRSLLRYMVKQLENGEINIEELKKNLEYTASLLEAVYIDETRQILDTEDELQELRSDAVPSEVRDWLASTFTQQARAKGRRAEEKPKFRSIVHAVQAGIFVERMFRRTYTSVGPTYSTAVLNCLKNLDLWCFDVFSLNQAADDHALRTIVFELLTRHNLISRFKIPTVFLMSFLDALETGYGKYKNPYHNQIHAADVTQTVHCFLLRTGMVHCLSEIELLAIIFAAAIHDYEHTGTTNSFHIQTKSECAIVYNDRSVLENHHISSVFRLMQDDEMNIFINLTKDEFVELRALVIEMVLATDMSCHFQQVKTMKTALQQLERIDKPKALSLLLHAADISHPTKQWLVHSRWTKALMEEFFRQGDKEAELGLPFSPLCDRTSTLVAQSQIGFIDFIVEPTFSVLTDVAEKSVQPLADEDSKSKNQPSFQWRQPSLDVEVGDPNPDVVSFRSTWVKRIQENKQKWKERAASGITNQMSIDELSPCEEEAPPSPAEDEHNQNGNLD
assay_explanation: Phosphodiesterase enzyme screening assay, PDE1B
Type: biochemical
condition_summary: Table 1; ratio of IC50 values; value greater than 1 indicates greater selectivity for PDE9A2
readout_name: PDE1B selectivity (versus PDE9A2)
Lab note: write the figure by itself, no unit.

molecule	target_desc	PDE1B selectivity (versus PDE9A2)
C[C@@H]1CN(Cc2ccc3cccnc3c2)C[C@H]1c1nn2c(C3CCOCC3)ncc2c(=O)[nH]1 (relative stereo)	PDE1B (Homo sapiens, UniProt Q01064)	5180
CC1CN(C(=O)c2cccnc2)CC1c1nn2c(C3CCOCC3)ncc2c(=O)[nH]1 (single isomer, unassigned; (-))	PDE1B (Homo sapiens, UniProt Q01064)	50

Proceed to the following item.
Exercise: State its PDE1B selectivity (versus PDE9A2) for this molecule: Cc1ccc(F)cc1-c1ncc2c(=O)[nH]c(C3CN(Cc4ccccc4)CC3C)nn12 (single isomer, unassigned; (+)) [(+)-2-((3,4-trans)-1-benzyl-4-methylpyrrolidin-3-yl)-7-(5-fl]
Solution: 109

Data origin: patent US9969742B2
